These measurements were taken from patent US9890185B2.

System: PBMCs
Test: LPS-induced IL-8 release in PBMC cells (assay b)
Assay type: cell-based, human
Settings: Homo sapiens, PBMC; LPS-stimulated PBMCs; read-out: IC50 Values for Inhibition of Cytokine Release, PBMCs IL-8
ENDPOINT: log10(IC50) (log10 of the value in nM)
In our notation, the value equals log10 of IC50 in nM.

Example cases with answers are listed next.
COc1cc(Nc2cc(Oc3ccc(NC(=O)Nc4cc(C(C)(C)C)cc(P(C)(C)=O)c4OC)c4ccccc34)ccn2)cc(C(=O)N(C)CCC2CCN(C)CC2)c1    1.35
COc1cc(Nc2nccc(Oc3ccc(NC(=O)Nc4cc(C(C)(C)C)cc([S+](C)[O-])c4OC)c4ccccc34)n2)cc(C(=O)NCCN2CCN(C)CC2)c1 (stereo not shown)    0.18

Turning now to a further record.
Name the recorded log10(IC50) for COc1c(NC(=O)Nc2ccc(Oc3ccnc(Nc4cccc(OS(C)(=O)=O)c4)n3)c3ccccc23)cc(C(C)(C)C)cc1P(C)(C)=O .
-0.30
